Test Summary: Solubility trials: saturation concentration of the oxazaphosphorine in water / aqueous urea solution
Test Settings: aqueous urea solution, Cyclophosphamid-Endkonzentration, Harnstoff-Startkonzentration 45 % (G/V); Harnstoff-Endkonzentration 37,3 % (G/G)
Endpoint Name: solubility (mg/mL)
One number for each entry, in mg/mL.

// lookup solubility for O=P1(N(CCCl)CCCl)NCCCO1 (stereo not shown)
170

----------
Test Summary: Solubility trials: saturation concentration of the oxazaphosphorine in water / aqueous urea solution
Test Settings: aqueous urea solution, Cyclophosphamid-Sättigungskonzentration, with Harnstoff, up to Harnstoffstartkonzentration 50% (G/V)
Endpoint Name: solubility

Request the reported solubility associated with O=P1(N(CCCl)CCCl)NCCCO1 (stereo not shown) [Cyclophosphamid]
≤ 170 mg/mL

----------
Test Summary: Solubility trials: saturation concentration of the oxazaphosphorine in water / aqueous urea solution
Test Settings: aqueous urea solution, Ifosfamid-Endkonzentration, Harnstoff-Startkonzentration 15 % (G/V); Harnstoff-Endkonzentration 12,2 % (G/G)
Endpoint Name: solubility (mg/mL)
Numbers only, in mg/mL.

For the compound shown here, O=P1(NCCCl)OCCCN1CCCl (stereo not shown) , give the reported solubility.
462
